system: S. suis; experiment: Minimal inhibitory concentration (MIC), double-dilution in broth, OD600; type: cell-based, Streptococcus suis; conditions: unit assumed
Measured Quantity: MIC S. suis (µg/mL)
Kindly answer with a numeric value in µg/mL, unit omitted.

Before answering, review these 2 worked examples.
COc1ccc(-c2c(-c3ccc(OC)cc3O)n[nH]c2C(F)(F)F)cc1	12.5
COc1ccccc1-c1c(-c2ccc(OCC=C(C)C)cc2O)n[nH]c1C(F)(F)F	25

We now examine a further compound.
Using the record for "CCOc1ccc(-c2[nH]nc(C(F)(F)F)c2-c2ccc(Br)cc2)c(O)c1" , report its MIC S. suis.
3.13
